Target: UniProt P61073
Sequence (P61073 whole entry): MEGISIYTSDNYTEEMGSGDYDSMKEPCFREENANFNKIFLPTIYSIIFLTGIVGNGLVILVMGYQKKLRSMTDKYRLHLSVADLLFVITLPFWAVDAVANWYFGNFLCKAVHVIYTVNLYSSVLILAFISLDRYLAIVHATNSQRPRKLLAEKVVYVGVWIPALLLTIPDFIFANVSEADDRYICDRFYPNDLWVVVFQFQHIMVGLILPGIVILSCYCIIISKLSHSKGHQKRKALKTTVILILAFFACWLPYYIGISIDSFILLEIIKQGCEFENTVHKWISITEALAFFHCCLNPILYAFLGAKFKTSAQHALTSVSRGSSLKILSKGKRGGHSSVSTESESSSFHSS
Assay: Antagonist activity at CXCR4 in human CCRF-CEM cells assessed as inhibition of SDF-1alpha-induced calcium release preincubated for 25 mins followed by SDF-1alpha stimulation and measured for 90 secs by calcium flux assay

| item_smiles | measurement_units | IC50 |
| --- | --- | --- |
| CCN(C[C@H]1Cc2c(cccc2N2CCNCC2)CN1)[C@H]1CCCc2cccnc21 | nM | 14.8 |
| CC(C)N1CCN(c2cccc3c2C[C@H](CN(C)[C@H]2CCCc4cccnc42)NC3)CC1 | nM | 16.9 |
| c1cnc2c(c1)CCC[C@@H]2N(CC1CCCCC1)C[C@H]1Cc2c(cccc2N2CCNCC2)CN1 | nM | 715 |
| COCCN(C[C@H]1Cc2c(cccc2N2CCNCC2)CN1)[C@H]1CCCc2cccnc21 | nM | 154 |
| CN(C[C@H]1Cc2c(cccc2N2CCN(Cc3ccccn3)CC2)CN1)[C@H]1CCCc2cccnc21 | nM | 4.47 |
| C[C@@H]1CN(c2cccc3c2C[C@H](CN(C)[C@H]2CCCc4cccnc42)NC3)C[C@H](C)N1 | nM | 61 |
| CN(C[C@H]1Cc2c(cccc2N2C[C@@H]3C[C@H]2CN3)CN1)[C@H]1CCCc2cccnc21 | nM | 146 |
| CCCN(C[C@H]1Cc2c(cccc2N2CCNCC2)CN1)[C@H]1CCCc2cccnc21 | nM | 32.2 |
| CN(C[C@H]1Cc2c(cccc2N2CCN(c3ncccn3)CC2)CN1)[C@H]1CCCc2cccnc21 | nM | 30.7 |

Cited source for all entries: ChEMBL document CHEMBL4152343
